# TARGET_ENTITY: indoleamine 2,3-dioxygenase (IDO) (Homo sapiens)
# PROTOCOL: HeLa cell-based indoleamine 2,3-dioxygenase (IDO) assay (IFNγ-induced kynurenine production, absorbance 480 nm)
# MEASUREMENT_PARAMETERS: HeLa cells, IFNγ 25 ng/mL, 48 hour incubation
Hi there, I'd appreciate the recorded pIC50 for every entry that follows.
The scale used: pIC50 is minus the common logarithm of the concentration in molar units.

According to the records, this molecule C[C@@H](c1nnc(-c2ccc(F)cc2)[nH]1)[C@H]1CC[C@@H](c2ccnc3ccc(F)cc32)CC1 displays pIC50 of 7.78

In plain terms, C[C@@H](Nc1nnc(-c2ccc(C#N)cc2)[nH]1)[C@H]1CC[C@@H](c2ccnc3ccc(F)cc32)CC1 has a documented pIC50 of 6.41

Recorded result, CCC(Nc1nnc(-c2ccc(OC)cc2)o1)[C@H]1CC[C@@H](c2ccnc3c(C(F)(F)F)cccc32)CC1 (stereo partly shown) , pIC50: 7.69

Short answer for COCC(Nc1nnc(-c2ccc(OC)cc2)o1)[C@H]1CC[C@@H](c2ccnc3ccc(F)cc32)CC1 (single isomer, unassigned) : pIC50 was 7.81

Memo: C[C@@H](c1nnc(-c2ccc(F)cc2)o1)[C@H]1CC[C@@H](c2ccnc3ccc(F)cc32)CC1 , reported pIC50: 7.46

CC(C)Oc1ccc(-c2nnc([C@H](C)[C@H]3CC[C@@H](c4ccnc5ccc(F)cc54)CC3)[nH]2)cc1 has a reported pIC50 of 7.41

pIC50 reading for C[C@@H](Nc1nnc(-c2ccc(C#N)cc2)o1)[C@H]1CC[C@@H](c2ccnc3ccc(F)cc32)CC1 : 7.26

Record C[C@@H](c1nnc(-c2cccc(F)c2)[nH]1)[C@H]1CC[C@@H](c2ccnc3ccc(F)cc32)CC1 . Reported pIC50: 7.14

pIC50 for C[C@@H](c1nnc(-c2ccc(Cl)cc2)s1)[C@H]1CC[C@@H](c2ccnc3ccc(F)cc32)CC1 is 7.46

// sample C[C@@H](Nc1ncc(-c2ccc(Cl)cc2)o1)[C@H]1CC[C@@H](c2ccnc3ccc(F)cc32)CC1 , its pIC50 was 7.68

For this molecule ( CCC(Nc1nnc(-c2ccc(OC)cc2)o1)C1CCC(Oc2ccnc3ccccc23)CC1 (single isomer, unassigned) [Example 64-1] ), measured pIC50 is 6.04

Query C[C@@H](c1ncc(-c2ccc(Cl)cc2)[nH]1)[C@H]1CC[C@@H](c2ccnc3ccc(F)cc32)CC1 yields pIC50 of 7.98

pIC50 for CCC(Nc1nnc(-c2ccc(OC)cc2)o1)C1CCC(c2ccnc3ccc(C(F)(F)F)cc23)CC1 (single isomer, unassigned) [Example 60] is 7.26

Reported pIC50 for C[C@@H](c1nnc(-c2ccccc2)o1)[C@H]1CC[C@@H](c2ccnc3ccc(F)cc32)CC1 was 8.26

Please fill in: pIC50 reported for CCC(Nc1nnc(-c2ccc(Cl)cc2)o1)[C@H]1CC[C@@H](c2ccnc3ccc(C(F)(F)F)cc32)CC1 (single isomer, unassigned) [Example 58-2] = 8.13

Record CCC(Nc1nnc(-c2ccc(OC)cc2)o1)C1CCC(Oc2ccnc3ccccc23)CC1 (single isomer, unassigned) [Example 64-2] . Reported pIC50: 8.05

The molecule identified as C[C@@H](c1nnc(-c2ccccc2)[nH]1)[C@H]1CC[C@@H](c2ccnc3ccc(F)cc32)CC1 registered its pIC50 at 6.93

Note to self: pIC50 recorded for CC(C)Oc1ccc(-c2nnc([C@H](C)[C@H]3CC[C@@H](c4ccnc5ccc(F)cc54)CC3)o2)cc1 was 7.26

According to the records, this molecule CCC(Nc1nnc(-c2ccc(F)cc2)o1)C1CCC(c2ccnc3ccc(C(F)(F)F)cc23)CC1 (single isomer, unassigned) displays pIC50 of 8.46

----------
What pIC50 was measured for each of the following?
# TARGET_ENTITY: human IDO1 (Homo sapiens, UniProt P14902)
# Sequence (P14902 whole entry): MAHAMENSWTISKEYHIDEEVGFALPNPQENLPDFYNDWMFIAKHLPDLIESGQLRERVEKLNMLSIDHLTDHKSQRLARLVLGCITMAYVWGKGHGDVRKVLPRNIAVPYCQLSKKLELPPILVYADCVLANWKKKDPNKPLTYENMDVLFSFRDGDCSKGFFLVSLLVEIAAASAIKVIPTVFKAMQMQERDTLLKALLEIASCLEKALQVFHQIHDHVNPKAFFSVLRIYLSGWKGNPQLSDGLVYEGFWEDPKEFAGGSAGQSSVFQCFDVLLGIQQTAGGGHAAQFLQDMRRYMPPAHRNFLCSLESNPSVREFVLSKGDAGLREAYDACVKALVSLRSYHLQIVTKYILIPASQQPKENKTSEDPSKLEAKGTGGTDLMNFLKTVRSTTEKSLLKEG
# PROTOCOL: IDO inhibition assay in HEK293 cells stably expressing human IDO1 (kynurenine, Ehrlich reagent, absorbance 490 nm)
# MEASUREMENT_PARAMETERS: 20 hours incubation, read-out: IDO1 HEK Human IC50
FYI, pIC50 means -log10 of a concentration in mol per litre.

Entry C[C@@H](c1nnc(-c2ccc(F)cc2)o1)[C@H]1CC[C@@H](c2ccnc3ccc(F)cc32)CC1 , pIC50 reported as 7.41

The recorded pIC50 for COc1ccc(-c2nnc(N[C@H](C)[C@H]3CC[C@@H](c4ccnc5ccc(F)cc54)CC3)[nH]2)cc1 is 7.24

Given item CCOCC(Nc1nnc(-c2ccc(OC)cc2)o1)[C@H]1CC[C@@H](c2ccnc(F)c2C)CC1 (single isomer, unassigned) , the value recorded as its pIC50 is 6.48
